The measurements presented in this section are drawn from patent US8143290B2.

Target: recombinant human GR (Homo sapiens)
Sequence (P04150 whole entry): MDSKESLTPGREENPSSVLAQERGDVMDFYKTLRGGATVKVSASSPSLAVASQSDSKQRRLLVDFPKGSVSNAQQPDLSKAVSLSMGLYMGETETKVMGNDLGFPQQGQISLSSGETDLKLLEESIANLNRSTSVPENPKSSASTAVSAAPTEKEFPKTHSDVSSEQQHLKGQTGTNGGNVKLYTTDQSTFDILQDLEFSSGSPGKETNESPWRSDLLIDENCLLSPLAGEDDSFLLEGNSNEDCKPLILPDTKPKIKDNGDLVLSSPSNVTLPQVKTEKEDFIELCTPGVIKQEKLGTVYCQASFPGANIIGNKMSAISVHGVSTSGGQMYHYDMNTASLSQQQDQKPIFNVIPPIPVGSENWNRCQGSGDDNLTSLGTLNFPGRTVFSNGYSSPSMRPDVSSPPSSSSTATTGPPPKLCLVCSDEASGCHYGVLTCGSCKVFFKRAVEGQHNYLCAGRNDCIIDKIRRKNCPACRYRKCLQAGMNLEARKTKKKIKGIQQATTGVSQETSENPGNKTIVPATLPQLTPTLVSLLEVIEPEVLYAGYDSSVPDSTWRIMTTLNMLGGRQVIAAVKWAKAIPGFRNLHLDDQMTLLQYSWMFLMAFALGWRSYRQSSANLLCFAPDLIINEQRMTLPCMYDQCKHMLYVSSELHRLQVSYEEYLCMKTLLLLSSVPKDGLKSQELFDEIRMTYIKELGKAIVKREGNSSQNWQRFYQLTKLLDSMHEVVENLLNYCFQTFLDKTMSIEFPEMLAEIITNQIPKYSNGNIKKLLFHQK
Assay: Human Glucocorticoid Receptor (GR) Assay, fluorescence polarization
Conditions: GS Red tracer, incubated 2 h at r.t., XLfit model 205, read-out: GRhuFL_FP_v2 Mean IC50
Method: Human Glucocorticoid Receptor (GR) Assay The assay is based on a commercial kit from Panvera/Invitrogen (Part number P2893). The assay technology is fluorescence polarization. […] The GR and Stabilizing Peptide reagents are stored at −70° C. while the GS Red is stored at −20° C. Also included in the kit are 1M DTT (Panvera, Part number P2325, stored at −20° C.) and GR Screening buffer 10× (Panvera, Part number P2814, stored at −70° C. initially but once thawed stored at r.t.). […]
reported_endpoint: pIC50
// pIC50: -log10(molar conc.)

Worked examples, 6 compounds total:
INSERT INTO measurements (molecule_smiles, reported_endpoint, endpoint_result) VALUES
  ('C[C@H](NC(=O)NC1CCCC1)[C@H](Oc1ccc2c(cnn2-c2ccc(F)cc2)c1)c1ccccc1', 'pIC50', 8.44),
  ('COc1cc([C@@H](Oc2ccc3c(cnn3-c3ccc(F)cc3)c2)[C@H](C)NC(=O)C(F)(F)F)ccc1SC', 'pIC50', 8.16),
  ('COc1cccc([C@@H](Oc2ccc3c(cnn3-c3ccc(F)cc3)c2)[C@H](C)NC(=O)c2sccc2OC)c1', 'pIC50', 8.24),
  ('COCC(=O)N[C@@H](C)[C@H](Oc1ccc2c(cnn2-c2ccc(F)cc2)c1)c1cccc(OC)c1', 'pIC50', 8.54),
  ('COC(=O)N[C@@H](C)[C@H](Oc1ccc2c(cnn2-c2ccc(F)cc2)c1)c1ccccc1', 'pIC50', 8.23),
  ('Cc1cccc([C@@H](Oc2ccc3c(cnn3-c3ccc(F)cc3)c2)[C@H](C)NC(=O)C(F)(F)F)c1', 'pIC50', 8.49);

Query pIC50 for `CC[C@H](NC(=O)CO)[C@H](Oc1ccc2c(cnn2-c2ccc(F)cc2)c1)c1ccccc1`
8.47

Find the measured pIC50 of `Cc1ccc(F)cc1[C@@H](Oc1ccc2c(cnn2-c2ccc(F)cc2)c1)[C@H](C)NC(=O)C(C)(C)F` and report it.
8.30

Provide only the value of recorded pIC50 for `COc1ccc(F)cc1[C@@H](Oc1ccc2c(cnn2-c2ccc(F)cc2)c1)[C@H](C)NC(=O)C(C)(C)C`
8.49

// Input: `CCc1ccc([C@@H](Oc2ccc3c(cnn3-c3ccc(F)cc3)c2)[C@H](C)NC(=O)C(F)(F)F)cc1` . Output its pIC50 only.
8.47

Give the measured pIC50 for `COc1cccc([C@@H](Oc2ccc3c(cnn3-c3ccc(F)cc3)c2)[C@H](C)NC(=O)[C@H](C)O)c1`
8.57

Look up and state reported pIC50 for `COc1cccc([C@@H](Oc2cc3cnn(-c4ccc(F)cc4)c3cc2C)[C@H](C)NC(=O)CO)c1`
8.39

Please report pIC50 for the following compound: `COc1cccc([C@@H](Oc2ccc3c(cnn3-c3ccc(F)cc3)c2)[C@H](C)NC(=O)CO)c1`
8.55

State its pIC50: `C[C@H](NC(=O)C1(C)CC1)[C@H](Oc1ccc2c(cnn2-c2ccc(F)cc2)c1)c1ccc2c(c1)OCCO2`
8.57

Write down pIC50 measured for item `COCC(=O)N[C@@H](C)[C@H](Oc1ccc2c(cnn2-c2ccc(F)cc2)c1)c1ccc(C)cc1C`
8.24
